These measurements were taken from ChEMBL document CHEMBL1777807.

method_description: Plasma clearance in mouse
Type: ADME, organism-based
# maps each entry to its clearance
Express the result in L/h/kg but write the number alone.

CC#CC(CC(=O)O)c1ccc(Oc2ccc(C(F)(F)F)cc2OC(F)F)cc1 (racemic) = 0.0294

Please turn your attention to the following entry.
stdin: For the molecule CC#C[C@@H](c1ccc(Oc2ccc(C(F)(F)F)cc2OC(F)F)cc1)[C@H]1OC(=O)NC1=O (racemic) , give its reported clearance.
stdout: 0.051

###

# maps each entry to its Tmax
method_description: Tmax in mouse
Type: ADME, organism-based
settings: in vivo
Express the result in h but write the number alone.

CC#CC(CC(=O)O)c1ccc(Oc2ccc(C(F)(F)F)cc2OC(F)F)cc1 (racemic) = 4

stdin: For the compound CC#C[C@@H](c1ccc(Oc2ccc(C(F)(F)F)cc2OC(F)F)cc1)[C@H]1OC(=O)NC1=O (racemic) , give its reported Tmax.
stdout: 4.7
